Reference source for all entries: patent US20240287168A1

target_or_test_system: T1, Biotinylated Human VEGF165 (ACROBiosystems, Cat. No. VE5-H82Q0) (human, UniProt P15692-4 27-191, biotinylated (site not stated))
T1 construct: Bought reagent; also called Human VEGF-Bio; human VEGF165-Bio
T1 sequence (P15692 other isoform, or with tags, fused parts or gaps limits assumed): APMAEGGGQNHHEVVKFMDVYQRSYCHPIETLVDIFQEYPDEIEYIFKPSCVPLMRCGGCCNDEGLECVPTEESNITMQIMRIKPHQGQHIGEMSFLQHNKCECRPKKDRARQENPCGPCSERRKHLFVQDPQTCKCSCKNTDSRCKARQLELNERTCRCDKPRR
method_summary: competitive ELISA: antibody titrated with biotinylated human VEGF165 (formulated at 700 ng/ml) on coated human VEGFR2, SA-HRP, OD450; blocked interaction VEGF165-VEGFR2
Measured IC50, listed per entry for reference.
Value expressed in µg/mL; do not type the unit.

Ab1910VE23 (expressed affinity-matured single domain antibody, clone YC43H2) (VHH) VHH: EVQLVESGGGLVQPGGSLRLSCAASGSTSDIVSMAWYRQAPGKERELVSAVFAEDWRYVEDSVKGRFTISRDNSKNTVYLQMNSLRAEDTAVYYCNVRLRIPHQWRTERLDYWGQGTLVTVSS :: 1.24
Ab1910VE24 (expressed affinity-matured single domain antibody, clone YC43B1) (VHH) VHH: EVQLVESGGGLVQPGGSLRLSCAASGSTSDIVSMAWYRQAPGKERELVSAVFAEDWRYVEDSVKGRFTISRDNSKNTVYLQMNSLRAEDTAVYYCNVRLRITDWYSRERLDYWGQGTLVTVSS :: 0.623
Ab1910VE18 (expressed single domain antibody with the Ab1910VE9 parent sequence, molecule before affinity maturation) (VHH, Its theoretical pI (7.5) differs from that of Ab1910VE9 (7), so it is kept apart from Ab1910VE9) VHH: EVQLVESGGGLVQPGGSLRLSCAASGSTSDIVSMAWYRQAPGKERELVSAVFAEDWRYVEDSVKGRFTISRDNSKNTVYLQMNSLRAEDTAVYYCNVRLRITDERRRERLDYWGQGTLVTVSS :: 0.88

Please look at the following binder next.
Query: Which measured IC50 value corresponds to Ab1910VE21 (expressed affinity-matured single domain antibody, clone YC41D1) (VHH) VHH: EVQLVESGGGLVQPGGSLRLSCAASGSTSDIVSMAWYRQAPGKERELVSAVLAPGWSYVEDSVKGRFTISRDNSKNTVYLQMNSLRAEDTAVYYCNVRLRITDERRRERLDYWGQGTLVTVSS ?
Reply: 0.42
